- target.system: Urease Purified from Proteus mirabilis (Pr-91) (Proteus mirabilis, UniProt P17086)
- Construct: host or cells: Proteus mirabilis (Pr-91)
- Sequence (P17086 whole entry): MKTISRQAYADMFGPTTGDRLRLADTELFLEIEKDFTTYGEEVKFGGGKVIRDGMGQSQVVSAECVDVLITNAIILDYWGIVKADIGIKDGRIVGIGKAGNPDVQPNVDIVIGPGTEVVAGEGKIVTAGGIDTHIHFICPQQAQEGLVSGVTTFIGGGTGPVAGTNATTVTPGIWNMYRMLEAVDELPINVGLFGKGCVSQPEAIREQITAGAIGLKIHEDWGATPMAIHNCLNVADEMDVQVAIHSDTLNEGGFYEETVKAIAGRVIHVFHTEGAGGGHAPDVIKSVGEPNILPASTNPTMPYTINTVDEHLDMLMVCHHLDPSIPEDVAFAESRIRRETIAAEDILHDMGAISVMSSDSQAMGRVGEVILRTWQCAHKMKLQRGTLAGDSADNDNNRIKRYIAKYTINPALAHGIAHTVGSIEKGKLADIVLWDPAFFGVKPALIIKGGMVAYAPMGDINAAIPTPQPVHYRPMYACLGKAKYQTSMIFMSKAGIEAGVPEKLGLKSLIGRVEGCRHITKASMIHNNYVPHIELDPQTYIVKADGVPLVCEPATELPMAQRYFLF
- Sequence (P17088 whole entry, further chain): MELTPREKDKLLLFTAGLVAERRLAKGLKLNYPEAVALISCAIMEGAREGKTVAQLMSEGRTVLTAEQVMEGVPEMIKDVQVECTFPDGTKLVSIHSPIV
- Sequence (P17087 whole entry, further chain): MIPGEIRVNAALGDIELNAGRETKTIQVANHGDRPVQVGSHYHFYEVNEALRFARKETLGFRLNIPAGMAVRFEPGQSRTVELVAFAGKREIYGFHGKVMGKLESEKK
- measurement.description: Inhibition of urease purified from Proteus mirabilis (Pr-91)
- Assay type: biochemical
- condition.context: urease purified from Proteus mirabilis (Pr-91); read-out: Concentration of compound for 50% inhibition of urease
quantity.measured: IC50 (nM)
Please give a number only; it is taken to be in nM.

query: Please look up its IC50: "NP(N)(N)=O"
result: 120

###

- target.system: Urease Purified from Proteus mirabilis (Pr-91) (Proteus mirabilis)
- Construct: host or cells: Proteus mirabilis (Pr-91)
- measurement.description: Inhibition of urease purified from Proteus mirabilis (Pr-91)
- Format: biochemical
quantity.measured: IC50 (µM)
Please give a number only; it is taken to be in µM.

Before answering, review these 4 worked examples.
> print(dat)
                                   molecule  quantity.measured  measurement
1  NP(N)(=O)Nc1ccc([N+](=O)[O-])cc1 [4-Nitrophenyl, N-(4-Nitrophenyl)phosphorotriamide]               IC50         0.35
2                        NP(N)(=O)Nc1ccccc1               IC50           13
3  N#Cc1ccc(NP(N)(N)=O)cc1 [4-Cyanophenyl, N-(4-Cyanophenyl)phosphorotriamide]               IC50           50
4              NP(N)(=O)Nc1cccc(C(F)(F)F)c1               IC50           40

Next item in the queue.
query: Please look up its IC50: Nc1ccc(NP(N)(N)=O)cc1 [4-Aminophenyl, N-(4-Aminophenyl)phosphorotriamide]
result: 16
